# target_system: MDR1 (ABCB1, ATP-dependent translocase) (Homo sapiens)
# Sequence (P08183 whole entry): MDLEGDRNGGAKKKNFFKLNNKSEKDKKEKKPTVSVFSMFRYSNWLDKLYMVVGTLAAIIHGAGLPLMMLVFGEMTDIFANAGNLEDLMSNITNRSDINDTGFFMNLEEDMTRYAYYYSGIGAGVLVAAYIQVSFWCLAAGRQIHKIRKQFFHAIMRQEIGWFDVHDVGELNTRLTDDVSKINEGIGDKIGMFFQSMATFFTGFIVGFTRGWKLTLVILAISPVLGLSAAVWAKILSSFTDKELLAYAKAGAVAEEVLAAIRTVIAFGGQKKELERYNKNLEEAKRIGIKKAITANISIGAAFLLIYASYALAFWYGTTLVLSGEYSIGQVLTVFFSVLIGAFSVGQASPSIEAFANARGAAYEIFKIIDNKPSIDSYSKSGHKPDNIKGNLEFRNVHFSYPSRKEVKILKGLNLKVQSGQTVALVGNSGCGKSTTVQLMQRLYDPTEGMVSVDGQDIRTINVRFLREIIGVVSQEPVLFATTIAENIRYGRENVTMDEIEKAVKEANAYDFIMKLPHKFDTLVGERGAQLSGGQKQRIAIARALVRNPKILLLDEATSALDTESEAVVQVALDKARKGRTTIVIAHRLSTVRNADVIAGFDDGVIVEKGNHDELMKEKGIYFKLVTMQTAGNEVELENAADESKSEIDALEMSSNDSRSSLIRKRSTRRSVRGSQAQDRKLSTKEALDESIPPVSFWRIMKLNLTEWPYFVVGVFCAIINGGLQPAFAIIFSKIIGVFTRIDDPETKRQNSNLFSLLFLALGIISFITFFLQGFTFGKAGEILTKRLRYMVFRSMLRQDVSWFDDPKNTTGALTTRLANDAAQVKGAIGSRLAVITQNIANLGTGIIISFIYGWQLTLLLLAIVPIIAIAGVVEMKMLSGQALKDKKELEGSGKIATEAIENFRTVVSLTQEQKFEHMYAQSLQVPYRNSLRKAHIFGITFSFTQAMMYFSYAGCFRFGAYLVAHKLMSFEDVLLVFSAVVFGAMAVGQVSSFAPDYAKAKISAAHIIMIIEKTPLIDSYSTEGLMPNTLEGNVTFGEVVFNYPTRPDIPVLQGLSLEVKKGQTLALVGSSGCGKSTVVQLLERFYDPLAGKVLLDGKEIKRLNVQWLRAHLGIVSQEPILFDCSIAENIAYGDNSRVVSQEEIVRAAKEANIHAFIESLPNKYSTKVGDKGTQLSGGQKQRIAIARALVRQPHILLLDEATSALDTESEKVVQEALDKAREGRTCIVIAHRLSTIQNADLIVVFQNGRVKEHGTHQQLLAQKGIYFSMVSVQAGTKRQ
# assay_remarks: TP_TRANSPORTER: inhibition of Doxorubicin efflux (Doxorubicin: 50 uM, Endosulfan: 100 uM) in MDR1-expressing B16/F10 cells
# Assay type: functional, cell-based
# study_conditions: mouse, probe Doxorubicin
measurement_label: inhibition at 100 µM

Problem: For the compound shown here, O=S1OCC2C(CO1)C1(Cl)C(Cl)=C(Cl)C2(Cl)C1(Cl)Cl (stereo unspecified) [ENDOSULFAN] , give the reported inhibition at 100 µM.
Result: > 80%

###

# target_system: MDR1 (ABCB1, ATP-dependent translocase) (Homo sapiens)
# assay_remarks: TP_TRANSPORTER: inhibition of Doxorubicin efflux (Doxorubicin: 50 uM, Heptachlor epoxide: 250 uM) in MDR1-expressing B16/F10 cells
# Assay type: functional, cell-based
# study_conditions: mouse, probe Doxorubicin
measurement_label: inhibition at 250 µM

Problem: // query inhibition at 250 µM value for entry ClC1=C(Cl)C2(Cl)C3C4OC4C(Cl)C3C1(Cl)C2(Cl)Cl (stereo unspecified) [HEPTACHLOR EPOXIDE]
Result: > 80%
